# cell count annotations
# Method: inhibitors of TNFa-induced NFkB p65 translocation, primary screen, imaging, HUVEC, MLSMR starter and 10KST1 sets (AID 438);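 further: compound added about 3h40 before a 20 min TNFalpha stimulation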
# Settings: HUVEC TNFa-induced p65 nuclear translocation; measured here: nuclei count (cytotoxicity indicator), at 2.08 µM
Test Readout: cell count

1) CCOC(=O)c1c(N)nn(C(=O)C(C)C)c1-c1ccccc1	690
2) COc1cc(-c2nc(-c3ccncc3)no2)cc(OC)c1OC	491
3) O=C1NC(=O)C(CC(=O)N(c2ccccc2)C2(C(=O)NC3CCCC3)CCCCC2)N1 (stereo not drawn)	384
4) Fc1cccc2sc(Nc3nnc(-c4ccco4)o3)nc12	404
5) CCSc1nnc(N2C(=O)CC(c3ccsc3)C3=C2CC(C)(C)CC3=O)s1 (stereo not drawn)	558
6) CCN(CC)C(c1ccc(C)cc1)c1nnnn1C1CCCCC1 (stereo not drawn)	438
7) CCCCOc1cccc(NC(=O)CSc2nccn2C)c1	397
8) O=C(COc1ccccc1)Nc1ccccc1N1CCN(c2ccccc2)CC1	672
9) O=C(/C=C/N1CCOCC1)c1ccc(-c2ccccc2)cc1	617
10) CO/C([O-])=N/c1c[n+](-c2ccc(C)cc2)no1	711
11) O=C(Cn1nnc(-c2ccc(S(=O)(=O)N3CCCC3)cc2)n1)NCC1CCCO1 (stereo not drawn)	374
12) Cc1cc(C(=O)Nc2sc3c(c2C#N)CCCCC3)cs1	651
13) COc1ccc(-c2cc(C(=O)N3CCN(Cc4ccccc4)CC3)no2)cc1OC	463
14) Cn1c(=O)[nH]c(=O)c2c1nc(N1CCOCC1)n2CC(O)COc1ccc2ccccc2c1 (stereo not drawn)	438
15) COc1ccccc1C1/C(=C(/O)c2ccccc2)C(=O)C(=O)N1CC(C)C (stereo not drawn)	430
16) Cc1ccc(CCP(=O)(O)CN2CCOCC2)cn1	380
17) Cc1cc2c(c(=O)o1)C(C13C=CC(CC1)C3)C(C#N)=C(N)O2 (stereo not drawn)	326
18) O=C(C1=C(O)C(=O)N(Cc2ccccc2)C1c1ccncc1)c1ccco1 (stereo not drawn)	382
19) CCCn1c(SCC(=O)NCCc2ccccc2)nnc1-c1ccccn1	501
20) O=C(CSc1nc2cc(S(=O)(=O)N3CCOCC3)ccc2o1)NC1CCCc2ccccc21 (stereo not drawn)	571
21) COCCNC(=O)CN1CCN(Cc2cccc(Cl)c2)C1=O	752
22) CC(=O)Nc1nnc(SCC(=O)NCC2CCCO2)s1 (stereo not drawn)	415
23) Cc1ccc(-c2nn(-c3ccccc3)cc2/C=C(\C#N)c2cccc(C#N)c2)o1	264

====

# System Tested: Voltage-gated potassium channel subunit beta-2 (Rattus norvegicus)
# Method: inhibitors of rat Kvbeta2 reductase activity – biochemical, NADPH fluorescence, primary screen (AID 622);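 further: slope of raw intensity against log time taken from 70 to 1610 s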
# Settings: recombinant KvBeta, 4-cyanobenzaldehyde reduction, at 10 µM, stronger effect = higher value
Outcome: t for fluorescence slope of at least -0.4; f for anything lower.

1) COc1ccccc1N(CC(=O)NC1CCCC1)C(=O)c1csnn1	t
2) Nc1nnc(SCC(=O)N2CCN(c3ccccc3)CC2)n1-c1ccccc1	f
3) CCOC(=O)N1CCC(N2C(=O)c3ccccc3C2Nc2cccnc2)CC1 (configuration not stated)	f
4) CCOC(=O)c1sc(NC(=O)COC(=O)Cn2cnc3ccccc32)c(C(=O)OCC)c1C	f
5) CC(C)[C@H](NC(=O)[C@@H]1CSCN1C(=O)OC(C)(C)C)C(=O)NCC1CCC(C(=O)O)CC1 (some centres not stated)	f
6) CSc1ncc(Cl)c(C(=O)Nc2ccc(S(=O)(=O)N3CCOCC3)cc2)n1	f
7) COC(=O)Cn1cnc2sc(C)c(S(=O)(=O)N3CCC(C)CC3)c2c1=O	f
8) CCC(C(=O)Nc1ncccn1)(C(F)(F)F)C(F)(F)F	f
9) COc1cc2[nH]c(=O)n(CCCCCC(=O)N3CCN(c4ccccn4)CC3)c(=O)c2cc1OC	t
10) CCOC(=O)N1CCN(C(=O)c2ccc3c(=O)n(CCc4ccccc4)c(=O)[nH]c3c2)CC1	t
11) CCCc1cc(C(=O)Nc2sc(C)c(C)c2C(=O)OCC)no1	t
12) CNC(=O)CSc1nnc(-c2cc(C)cc(C)c2)o1	f
13) CC12CCC(C(=O)O)(c3nc(C#N)c(C#N)nc31)C2(C)C (configuration not stated)	f
14) Cc1nnc(SCCn2c(N3CCC(Cc4ccccc4)CC3)nc3c2c(=O)[nH]c(=O)n3C)s1	f
15) Nc1nonc1C(=O)NCCNCc1cc(Br)ccc1OCc1ccccc1F	f
16) CCOC(=O)CSc1nnc(CNC(=O)c2ccc(S(=O)(=O)N3CCCC3)cc2)n1C	f
17) O=C(c1cccnc1)N1CCN(C(=O)c2ccccc2F)CC1	t
18) COc1ccc2c3c(c(=O)oc2c1OCC(N)=O)CCCC3	t
19) COC(=O)c1nc(N)sc1-c1ccccc1	t
20) Cc1cc(C)nc(-n2nc(C)cc2NC(=O)c2ccc(Br)o2)n1	t
21) CN(C)S(=O)(=O)N1CCN(S(=O)(=O)c2ccc(F)cc2)CC1	f
22) C=CCn1c(SCc2cc(=O)n3ccsc3n2)nnc1C1CCCCC1	f
